Assign CATDS to each entry below.
- MEASUREMENT TARGET: ABL1 (Homo sapiens, UniProt P00519)
- Sequence (P00519 28-1130 limits assumed): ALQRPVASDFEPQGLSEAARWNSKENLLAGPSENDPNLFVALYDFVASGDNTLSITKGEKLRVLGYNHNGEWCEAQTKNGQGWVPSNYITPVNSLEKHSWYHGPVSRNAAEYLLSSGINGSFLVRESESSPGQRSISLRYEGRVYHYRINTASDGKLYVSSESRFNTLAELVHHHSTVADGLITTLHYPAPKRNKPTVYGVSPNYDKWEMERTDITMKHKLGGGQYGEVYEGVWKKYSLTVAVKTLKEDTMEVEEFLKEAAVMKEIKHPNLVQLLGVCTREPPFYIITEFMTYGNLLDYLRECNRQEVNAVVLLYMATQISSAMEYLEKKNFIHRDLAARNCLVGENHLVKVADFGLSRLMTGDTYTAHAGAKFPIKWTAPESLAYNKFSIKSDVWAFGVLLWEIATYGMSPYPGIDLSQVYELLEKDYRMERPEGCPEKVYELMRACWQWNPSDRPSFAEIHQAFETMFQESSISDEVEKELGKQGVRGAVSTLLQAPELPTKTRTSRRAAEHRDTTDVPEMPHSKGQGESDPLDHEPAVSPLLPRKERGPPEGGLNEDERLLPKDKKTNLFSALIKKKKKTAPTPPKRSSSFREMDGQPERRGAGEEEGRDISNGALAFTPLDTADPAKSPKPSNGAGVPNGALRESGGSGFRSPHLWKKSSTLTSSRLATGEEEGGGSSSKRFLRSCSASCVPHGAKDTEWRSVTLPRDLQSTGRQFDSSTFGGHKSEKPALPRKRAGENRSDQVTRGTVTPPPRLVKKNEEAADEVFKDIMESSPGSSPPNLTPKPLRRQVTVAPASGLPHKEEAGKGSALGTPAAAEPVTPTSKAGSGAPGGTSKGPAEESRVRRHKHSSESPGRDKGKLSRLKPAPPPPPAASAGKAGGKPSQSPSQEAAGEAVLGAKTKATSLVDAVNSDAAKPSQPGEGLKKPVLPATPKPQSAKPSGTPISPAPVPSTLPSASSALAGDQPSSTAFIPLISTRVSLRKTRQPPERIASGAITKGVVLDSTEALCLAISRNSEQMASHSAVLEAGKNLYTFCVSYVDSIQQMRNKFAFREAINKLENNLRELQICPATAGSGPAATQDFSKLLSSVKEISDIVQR
- PROTOCOL DETAILS: Kinobeads two-dose competition binding: ABL1
- CONDITION DETAILS: sheet CATDS matrix 2; Gene Name ABL1

Input: Look up CATDS for this compound: COc1cc2ncn(-c3cc(OCc4ccccc4C(F)(F)F)c(C(C)=O)s3)c2cc1OC [GSK1030059A]
Output: 0

Record CATDS for all entries; do not skip any.
1. Cc1cc(N2CCC(NS(=O)(=O)c3ccc(F)cc3)CC2)nc(Nc2cccc(C#N)c2)n1 [GSK1653537A]
2. COc1cc2ncnc(Nc3ccc(F)c(Cl)c3)c2cc1O[C@H]1CC[C@H](N)CC1 [BIBW3133BS]

Output:
1: 0; 2: 0

Record CATDS for all entries; do not skip any.
1. Cc1ccc(NC(=O)c2cccc(N3CCCCC3)c2)cc1-c1ccc(C(=O)NCC2CC2)cc1 [GSK1917008A]
2. Cc1cccc(Nc2nc(N[C@H]3CCNC3)ncc2C(N)=O)c1 [GSK2197149A]
3. O=c1cc(N2CCOCC2)nc2n(Cc3cccc(F)c3)ccn12 [GSK2297430A]
4. O=c1[nH]c2cc(Nc3ccc(F)cc3F)ccc2n1CC1CCCCC1 [BI00601000]
5. CNC(=O)c1c(F)cccc1Nc1nc(Nc2cc3c(cc2OC)CCN3C(=O)CN(C)C)nc2[nH]ccc12 [GSK1838705]

Output:
1. 0
2. 0
3. 0
4. 0
5. 0

====

- MEASUREMENT TARGET: PKN3 (Homo sapiens, UniProt Q6P5Z2)
- Sequence (Q6P5Z2 whole entry): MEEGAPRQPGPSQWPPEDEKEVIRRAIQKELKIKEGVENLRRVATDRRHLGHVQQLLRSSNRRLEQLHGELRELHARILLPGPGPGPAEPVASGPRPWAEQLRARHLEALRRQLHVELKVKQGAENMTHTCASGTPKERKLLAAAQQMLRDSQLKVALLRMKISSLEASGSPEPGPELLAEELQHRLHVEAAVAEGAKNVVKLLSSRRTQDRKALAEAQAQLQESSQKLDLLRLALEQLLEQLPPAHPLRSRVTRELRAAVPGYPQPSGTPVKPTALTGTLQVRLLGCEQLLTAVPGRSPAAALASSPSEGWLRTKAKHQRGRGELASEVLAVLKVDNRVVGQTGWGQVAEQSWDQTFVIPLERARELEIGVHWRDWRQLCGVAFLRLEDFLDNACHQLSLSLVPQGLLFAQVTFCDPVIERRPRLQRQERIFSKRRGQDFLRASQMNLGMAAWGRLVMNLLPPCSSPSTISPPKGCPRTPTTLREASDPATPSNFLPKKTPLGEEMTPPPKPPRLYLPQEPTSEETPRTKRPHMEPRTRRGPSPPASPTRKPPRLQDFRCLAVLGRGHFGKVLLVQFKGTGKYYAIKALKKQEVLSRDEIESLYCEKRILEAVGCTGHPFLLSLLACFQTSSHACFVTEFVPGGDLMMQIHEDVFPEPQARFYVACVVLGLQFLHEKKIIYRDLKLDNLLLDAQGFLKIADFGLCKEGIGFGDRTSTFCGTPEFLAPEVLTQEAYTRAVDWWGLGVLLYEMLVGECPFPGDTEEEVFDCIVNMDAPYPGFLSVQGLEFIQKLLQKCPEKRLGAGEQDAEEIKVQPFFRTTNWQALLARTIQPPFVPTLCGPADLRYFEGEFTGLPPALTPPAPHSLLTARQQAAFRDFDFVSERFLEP
- PROTOCOL DETAILS: Kinobeads full dose-response competition binding: PKN3;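 further: inhibitor pre-incubated 45 min at 4 °C in cell lysate (5 mg/ml protein), then competed against Kinobeads ε pulldown for 30 min, bound kinase quantified by nano LC–MS/MS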
- Design: endogenous in cells
- CONDITION DETAILS: Kinobeads full dose-response; read-out: Kdapp PKN3
RESULT TYPE: Kd

Previously resolved entries follow.
Input: Look up Kd for this compound: CCn1c(-c2nonc2N)nc2c(C#CC(C)(C)O)nc(OCCN)cc21 [GSK902056A]
Output: 10 nM

Input: Request: CCn1c(-c2nonc2N)nc2c(C#CC(C)(C)O)nc(OCCNC)cc21 [GSK949675A]
Output: 90 nM

Next:
Input: Look up Kd for this compound: NCc1ccc(-c2nc(-c3ccncc3)c(-c3ccc(Cl)c(O)c3)[nH]2)cc1 [SB-476429-A]
Output: 38 nM

====

- MEASUREMENT TARGET: endogenous kinases and other proteins enriched by Kinobeads from mixed cancer cell lysates (Homo sapiens, UniProt Q9NSY1)
- Construct: endogenous in cells
- Sequence (Q9NSY1 whole entry): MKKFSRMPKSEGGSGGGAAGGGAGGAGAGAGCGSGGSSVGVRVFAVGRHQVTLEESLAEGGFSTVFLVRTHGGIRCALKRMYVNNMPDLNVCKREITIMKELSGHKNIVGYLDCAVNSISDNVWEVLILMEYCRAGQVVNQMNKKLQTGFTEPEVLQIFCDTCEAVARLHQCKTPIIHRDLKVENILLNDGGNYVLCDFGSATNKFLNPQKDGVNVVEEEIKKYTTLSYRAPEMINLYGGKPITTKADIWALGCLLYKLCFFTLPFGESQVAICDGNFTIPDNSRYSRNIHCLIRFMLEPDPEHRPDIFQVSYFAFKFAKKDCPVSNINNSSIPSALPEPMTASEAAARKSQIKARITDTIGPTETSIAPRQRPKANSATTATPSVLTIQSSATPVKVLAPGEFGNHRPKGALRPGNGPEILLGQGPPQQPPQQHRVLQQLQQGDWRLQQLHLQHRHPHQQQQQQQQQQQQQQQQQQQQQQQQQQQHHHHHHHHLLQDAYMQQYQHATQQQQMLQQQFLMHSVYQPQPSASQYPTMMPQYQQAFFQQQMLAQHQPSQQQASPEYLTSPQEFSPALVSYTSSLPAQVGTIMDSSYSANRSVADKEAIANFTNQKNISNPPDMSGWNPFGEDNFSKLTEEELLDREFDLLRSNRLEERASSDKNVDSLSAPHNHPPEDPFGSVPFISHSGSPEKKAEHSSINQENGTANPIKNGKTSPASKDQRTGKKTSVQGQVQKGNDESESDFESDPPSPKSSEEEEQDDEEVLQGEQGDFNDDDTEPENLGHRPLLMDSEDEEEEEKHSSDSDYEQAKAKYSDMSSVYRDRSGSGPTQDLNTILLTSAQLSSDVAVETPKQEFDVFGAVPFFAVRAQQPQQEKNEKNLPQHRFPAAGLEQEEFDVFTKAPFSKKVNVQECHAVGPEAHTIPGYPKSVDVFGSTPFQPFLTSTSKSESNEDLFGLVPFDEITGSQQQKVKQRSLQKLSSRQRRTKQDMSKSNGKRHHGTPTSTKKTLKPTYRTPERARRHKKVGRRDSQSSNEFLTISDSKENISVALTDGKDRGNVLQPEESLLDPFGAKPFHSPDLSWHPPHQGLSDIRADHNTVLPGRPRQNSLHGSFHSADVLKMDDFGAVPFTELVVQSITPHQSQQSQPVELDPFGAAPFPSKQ
- PROTOCOL DETAILS: Kinobeads pulldown, full dose-response (eight doses);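 further: competition with Kinobeads ε after inhibitor preincubation in lysate (5 mg/ml protein) for 45 min at 4 °C, DMSO control, doses 0.3–1,000 nM, label-free LC–MS/MS quantification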
- CONDITION DETAILS: target BMP2K; read-out: apparent Kd
RESULT TYPE: Kd (nM)
Answers are plain numbers, in nM.

Input: Look up Kd for this molecule: "Cn1cc(-c2nc(N[C@@H]3CCCC[C@@H]3N)c(F)c3c2C(=O)NC3)cn1"
Output: 456

====

- Test system: BRAF
- PROTOCOL DETAILS: Kinobeads competition binding: BRAF
- Parameters: species or system human
- CONDITION DETAILS: target BRAF
Assign CATDS to each entry below.
Give bare numbers.

Previously resolved entries follow.
Input: Look up CATDS for this compound: CCc1cc2c(cc1N1CCC(N3CCOCC3)CC1)C(C)(C)c1[nH]c3cc(C#N)ccc3c1C2=O [Alectinib]
Output: 0

Input: Request: Nc1ncnc2[nH]c(-c3ccccc3)nc12 [AH5015_KCGS]
Output: 0

Input: Request: N#CC1(c2ccc(NC(=O)c3cccnc3NCc3ccncc3)cc2)CCCC1 [Apatinib]
Output: 0

Next:
Input: Look up CATDS for this compound: CCN1CCN(Cc2ccc(Nc3ncc(F)c(-c4cc(F)c5nc(C)n(C(C)C)c5c4)n3)nc2)CC1 [Abemaciclib]
Output: 0

The reported measurements were obtained from paper PMC11062922.
